The values you see were collected from PubChem BioAssay AID1159580.

measurement.notes: chemical genetic growth profiling, strain panel (AID 1159580);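 also: tested at 20 µM; growth read once vehicle control cultures reached saturation at 30 °C; 1 = growth at the plate median or of vehicle wells; lower values mean less growth of the strain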
measurement.context: S. cerevisiae deletion strains, growth OD, locus YLR403W, strain SFP1, hits give low values
About 2,000 (36%) of roughly 5,500 compounds were called active. Another 18% or so got no clear call; they are omitted. This is one part of the list.
Could you please mark yes (1) for values of normalized growth below 0.9 and no (0) for values at or above it?

molecule	category
N/C(=N/OCc1c(F)cccc1Cl)c1ccc(Cl)cc1	yes (1)
COc1ccc(OC)c2nc3c(nc12)C(=O)c1ccccc1-3	no (0)
O=C1C(NCc2ccccc2)=C(NCc2ccccc2)C(=O)c2ccccc21	yes (1)
O=[N+]([O-])c1ccc(NCc2ccc(Cl)c(Cl)c2)nc1	yes (1)
FC(F)(F)c1c2c(nc3cc(-c4ccco4)nn13)CCC2	yes (1)
O=C1c2ccccc2C(=O)c2sccc21	yes (1)
CC(C)(C)c1ccc(-c2cc(NC(=O)c3ccc(Cl)cc3)n[nH]2)cc1	no (0)
FC(F)(F)c1ccncc1-c1nc(-c2ccc(Cl)cc2)cs1	no (0)
Cc1cc(C)c2cc(C(=O)NCCNc3ccc(C(F)(F)F)cn3)[nH]c2c1	yes (1)
O=[N+]([O-])c1ccc(Sc2ccccc2)c([N+](=O)[O-])c1	yes (1)
O=C(/C=C/c1ccc(Cl)cc1)Nc1cccc(Cl)c1	yes (1)
O=C(OCCNc1ccc([N+](=O)[O-])cn1)c1ccc([N+](=O)[O-])o1	yes (1)
C=CCC1C(=O)N(S(=O)(=O)c2ccc(Cl)cc2)N=C1CCC (centres undefined)	no (0)
CC(C)OC(=O)Nc1cc(Cl)cc(Cl)c1	yes (1)
COC(=O)c1cc(I)c(OC(C)=O)c(I)c1	no (0)
Cc1csc2c(N3CCN(C(=S)Nc4ccc(C(F)(F)F)cc4)CC3)ncnc12	no (0)
Cn1ncc(-c2nc(-c3ccc(Cl)cc3)cs2)c1N	yes (1)
CC1SC(c2cccnc2)N(c2ccc(F)cc2F)C1=O (centres undefined)	no (0)
COC(=S)Nc1cc(Cl)cc(Cl)c1	yes (1)
